Tested on: MS2 coat protein
Experiment notes: apparent KD of MS2 coat protein; higher = weaker reporter binding
Run conditions: Eterna round: R107; input ligand: none
Assignment: determine reported apparent KD of MS2 coat protein for the given sequences.
State the answer as a number, implicitly in nM.

May I ask what apparent KD of MS2 coat protein has been recorded for AGCCACUCGAGUGAUCCUCACGAGUGGCAACGAGGACCGGUACGGCCGCCACUCGAAUCAACAUGAGGAUCACCCAUGUAAUAAU [Brourdmod01] ?
76.3

Do the same for UGAUCCUGCAGGGAUACCAGCGCCGCUAGAUAACUAUGCACAUGAGGAUCACCCAUGUAACGCCCUUGGCAGCCCAACUAAAGGG [Same State Theophylline B GF21] please
39.9

Now the same for CUCAUCCACGCGGCCGCCACUACUUGUAGGUGUGGGUGUGUUGUGUUACAUGAGGAUCACCCAUGUAGGACCGGGCGUGGAUGAG [Whale]
62.7

Now give it for ACCUGUACGAAAAGUGCAGGACACGGAAUACGAGGACCGGUACGGCCGCCACUCGGAAUAAACCUGAGGAUCACCCUGGUCCGUG [TrypAS 9 #AlternativeMS2 #Zipper #StaticStem] too.
25.1

Field entry: UCGUAGGUAGGAAGGAGCGCAUACUUCACAUGAGGAUCACCCAUGUCGAGACGUGAGUCAGUGCAGGUAGGUCGCCUAGUUAUGA [Same State - Arginine B (Freestyle 24)]
41.1

Continue with GGGUGGUAGGCGGCCGCCACUGAUUUUCAUUUAUAGAUGACAUGAGGAUCACCCAUGUUUAUGUGCAGGACCGGGCCUGUUGUGG [aaaS]
98.7

Lookup CUCCCUUCGGCGGCCGCCACUAACAGUUUAAUGGACUUUCGGGUCCACAUGAGGAUCACCCAUGUUAGGACCGGGCCCUUGCUCU [theeternabot_exclusion_MS2_Trp_B_39]
9.2

Now this one: GUCCACAUGAGGAUCACCCAUGUAAGUGGGCGAGGACCGGUACGGCCGCCACUCGACAUGUUGACGAAAAGUCAGCAUGAGGACA [#SwitchBubble 3 #GuTurnoff #Tail]
108

Same question for UACAUGAGGAUCACCCAUGUAUGAAUGGAUACCAGCGACAAUGGGCGCCCUUGGCAGCUAGUGGAUGAAGGGUGGGUACAAUACU [Exclusion Theophyline A GF4] please.
13.4

Next: UACCCAUAGGGAAGGAGCGCGCUAACAUGAGGAUCACCCAUGUAAAGGGUUUCUGGCUUAGCGCAGGUAGGUCGCCCUAUGGGUA [#10 Exclusion - Arginine B]
238

Also UUAACGAGCUGAAGGAGCGCUCUUCAUCAACAUGAGGAUCACCCAUGUACACAUAAUAGGGAGCAGGUAGGUCGCAGCGGGAUGG [#24 Same State - Arginine B] ?
16.2

Entry to check: UGAUACACGGGAAGGAGCGACAGGGAUAAGUCCGCACGGGCCGCACAUGAGGAUCACCCAUGUCAGGUAGGUCGCCCGUGGCGUG [Erxemarima]
13.5

Another sequence to check: GCCGGGCCCGCGGCCGCCACUGAGAGAGUCGUGUGAACAUGAGGAUCACCCAUGUAAUAUAUAUACAGGACCGGGCGGGCCCGGC [4.X]
10.4

Now the same for CCGACAUGAGGAUCACCCAUGUGAACAGAUACCAGUCUGGUAAUAGACCCUUGGCAGCUGAACCAGGAAACUAUGGUGAUCCUGG [Theo A SS t3]
69.8

Same question, CCGUCACAUGAGGAUCACCCAUGUGCGGAAGGAGCGGACGAAAGUCCAGGUAGGUCGCCGUAUAGCCAAUGACCAGCAGUGUCGG [XARG-A 21] this time
12.6

Another sequence: UACCGAUGAAGAAGGAGCGUACGUGGUUCACAUGAGGAUCACCCAUGUGCUUAUUGCUAGGUACAGGUAGGUCGCUUCAUCGGUA [SSAB NP+V+V2 #21]
15.5

Now this one: UUGGUACAUGAGGAUCACCCAUGUACUGAAGGAGCGGGACGAAUCUCAGGUAGGUCGCAGACAUGAGGAUCACCCAUGUAUUGGU [Exclusion Arginine A GF 16]
13

# repeat for GCGAUGGAGCGAAGGAGCGGCUAAAUGUAUCACAUGAGGAUCACCCAUGUUCCAGGAUGUGGCCAGGUAGGUCGCGCUCCAUCGC [SSAB NP+V+V2 #16]
229

Please give the result for GGUCUCGCGGGCGAUACCAGCUUGAUCGUACUGGCCUGGUACAUGAGGAUCACCCAUGUAAGCCCUUGGCAGCGCGCGCGAGACC [#1 Exclusion - Theophylline B Attempt #5 (HarryS)] too.
10.6

Follow-up item: UGUAUGGACUGAAGGAGCGCCUCAAAAUAACUUGAGGAUCACCCAGGUAAGGCGAAAGCCGGGCAGGUAGGUCGCAGUCCAUACU [ArgBX 3]
37

Repeat with AGCACGGUGAUGGUAGCCGGACGCUAAGUACGAGGACCGGUACGGCCGCCACUCGGAGUCCUACGACAUGAGGAUCACCCAUGUA [Same State Trp A GF12]
34.9

Could you do the same for CUAUAAAUAUGAAGGAGCGUCGAAAAUGGGUAAACAUGAGGAUCACCCAUGUAAAGGGAACGACAGGUAGGUCGCAUAUUUAUAG [AstromonsSSArgB#11] , please?
180

Let us now turn to CUGUACAUCUCGGCCGCCACUGACAUGAGGAUCACCCAUGUAGUACCUGAGAUAGACAUAUCUUACAGGACCGGGAGGUGUGCAG [SSTryp B #31]
10.2

====

System: K4 kissing-loop RNA reporter;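 also: bound reporter read as fluorescence of individual clusters on recovered sequencing chips by microscopy, with normalized cluster intensities fitted with a binding model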
Experiment notes: apparent KD of K4 kissing-loop reporter; higher = weaker reporter binding
Run conditions: Eterna round: R107; input ligand: arginine 13.2 mM
Quantity kind: apparent KD of K4 kissing-loop reporter (nM)
Only the number, expressed in nM, is required.

Quick one: apparent KD of K4 kissing-loop reporter for GUUACGCAUGGAAGGAGCGCAUGCUCAACUAUAAGCUCAGUGAUGUUGAGCAUUUUUUUUUUGCAGGUAGGUCGCCAUGUGUAAC [Ex Arginine B K4 29] ?
255

What would you report for "UGGAGUUGACGAAAAGUCAACUCCUGGGAAGGAGCGGACGAAAGUCCAGGUAGGUCGCUCACUACCAGUGAUGUUGGUACUAAAA" ?
351

Next sequence up: AUAAACUUGCAGUGAUGUUGCAAGUGAGACUAGGAUAUCAGGAAGCUGAGAAGGAGUCAUCUCCUUCAGACAUCACUAUGAAGGA [whbob_SS_FMNA__2th179]
191

====

Test system: MS2 coat protein
Experiment notes: apparent KD of MS2 coat protein; higher = weaker reporter binding
Run conditions: Eterna round: R107; input ligand: theophylline 2 mM
Answer each item with its documented apparent KD of MS2 coat protein.

Find the recorded apparent KD of MS2 coat protein belonging to UAAAAUAUCUGGGUGUAGGUAAUAACAGAUACCAGCCAGAUAACUGGCCCUUGGCAGCUGAAAACAUGAGGAUCACCCAUGUAAA [TheoAS 22 #OpenEnded #Ms2Late] and report it.
0.236 µM

Moving on to the next sequence: GGGUGGUAGGCGGCCGCCACUGAUUUUCAUUUAUAGAUGACAUGAGGAUCACCCAUGUUUAUGUGCAGGACCGGGCCUGUUGUGG [aaaS]
0.113 µM

Same question for UACCCAUAGGGAAGGAGCGCGCUAACAUGAGGAUCACCCAUGUAAAGGGUUUCUGGCUUAGCGCAGGUAGGUCGCCCUAUGGGUA [#10 Exclusion - Arginine B] please.
1.05 µM

AGCACGGUGAUGGUAGCCGGACGCUAAGUACGAGGACCGGUACGGCCGCCACUCGGAGUCCUACGACAUGAGGAUCACCCAUGUA [Same State Trp A GF12] ?
0.0426 µM

Continue with UGUGACAUGAGGAUCACCCAUGUAAGGGAAGGAGCGCCGAAUAAGGCAGGUAGGUCGCCCAAGAUAGAAGAAUAAUAAGAUUGUG [Arginine A Same State; Euphoria Solution]
0.0279 µM

Try AAAACAUGAGGAUCACCACAUGACAUGAGGCGAGGACCGGUACGGCCGCCACUCGACAUACAUGAGGAUCACCCAUGUUUGUUGU [Exclusion Tryptophan A 4] next.
0.46 µM

Now try "UUCAGCUAGUCGGCCGCCACUACAUGAGCAUCAGCCAUGUUCCUAAAACACUGCUUCGGCAGUGGUAGGACCGGGACUAGCUGAG" .
0.0126 µM

Repeat with UUUUUUUUUUACAUGAGGAUCACCCAUGUUCGAGGACCGGUACGGCCGCCACUCGUUUUUGUUGUGGUAGGGUUAGGGUUAGGGU [Turkey Lurky]
0.0448 µM

Cool, now UAACAUGAGGAUCACCCAUGUUUGAAGAAACGAGGACCGGUACGGCCGCCACUCGACGAGUGGAUGAAUAGUGGGCUUGUGUGCU [Same State Trp A GF10]
0.0131 µM

Also need GCUACAUGAGGAUCACCCAUGUGUACUGAAGGAGCGGCGGAAACGCCAGGUAGGUCGCAGUAUGUGGCUCUGGGCACGAGAAAGC [SSAA NP+V+V2 #2] , thanks.
0.0729 µM

Same lookup for UACCGAUGAAGAAGGAGCGUACGUGGUUCACAUGAGGAUCACCCAUGUGCUUAUUGCUAGGUACAGGUAGGUCGCUUCAUCGGUA [SSAB NP+V+V2 #21] , please.
0.0171 µM

Same lookup for UUGUUGUUUGGAAGGAGCGUGUAAGAUUAAGAACAUGAGGAUCACCCAUGUUUUAAGGGAGCACAGGUAGGUCGCCGGGUGGUGG [11.S] , please.
0.0159 µM

Source: the supplement of paper PMC9170038
